Record: Ki reported on μ opioid receptor (Rattus norvegicus, UniProt P33535).
Sequence (P33535 whole entry): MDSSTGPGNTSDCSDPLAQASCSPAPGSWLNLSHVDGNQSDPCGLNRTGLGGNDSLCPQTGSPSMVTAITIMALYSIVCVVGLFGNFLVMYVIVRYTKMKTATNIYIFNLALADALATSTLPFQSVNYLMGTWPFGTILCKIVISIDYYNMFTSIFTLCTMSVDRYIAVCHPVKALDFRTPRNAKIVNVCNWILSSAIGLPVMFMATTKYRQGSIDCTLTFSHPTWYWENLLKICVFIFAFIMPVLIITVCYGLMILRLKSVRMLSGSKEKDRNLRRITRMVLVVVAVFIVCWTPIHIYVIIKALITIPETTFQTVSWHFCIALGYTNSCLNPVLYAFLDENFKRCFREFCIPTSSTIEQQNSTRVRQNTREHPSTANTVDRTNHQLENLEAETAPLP
Answer with a number only, understood to be in nM.

Answered cases to consult:
- COMPOUND: "NC(Cc1ccc(O)cc1)C(=O)N1Cc2ccccc2CC1C(=O)NCC(c1ccccc1)c1ccccc1 (stereo not drawn) [Example 1, H-Tyr-Tic-NH--CH2 --CH--(Ph)2]"
  TARGET OF ASSAY: "μ opioid receptor (Rattus norvegicus, UniProt P33535)"
  VALUE KIND: "Ki"
  RECORDED VALUE: 28.8
- COMPOUND: "N[C@@H](Cc1ccc(O)cc1)C(=O)N1Cc2ccccc2C[C@H]1C(=O)NCC(c1ccc([N+](=O)[O-])cc1)c1ccc([N+](=O)[O-])cc1 [Example 24]"
  TARGET OF ASSAY: "μ opioid receptor (Rattus norvegicus, UniProt P33535)"
  VALUE KIND: "Ki"
  RECORDED VALUE: 635

Test system μ opioid receptor (Rattus norvegicus, UniProt P33535); read-out Ki; what value for N[C@@H](Cc1ccc(O)cc1)C(=O)N1Cc2ccccc2C[C@H]1C(=O)NCC(CO)c1ccccc1 (single isomer, unassigned) [Example 28] ?
242

Request body: readout Ki, system μ opioid receptor (Rattus norvegicus, UniProt P33535), query Nc1ccc(C(CNC(=O)[C@@H]2Cc3ccccc3CN2C(=O)[C@@H](N)Cc2ccc(O)cc2)c2ccc(N)cc2)cc1 [Example 25] . Return the value.
5340

Which Ki is reported with μ opioid receptor (Rattus norvegicus, UniProt P33535) for this entry: NC(Cc1ccc(O)cc1)C(=O)N1Cc2ccccc2CC1C(=O)NC1CC1c1ccccc1 (single isomer, unassigned) [Example 21] ?
38

Lab note: need Ki for NC(Cc1ccc(O)cc1)C(=O)N1Cc2ccccc2CC1C(=O)NC1CC1c1ccccc1 (single isomer, unassigned) [Example 22] on μ opioid receptor (Rattus norvegicus, UniProt P33535), anyone have it?
11.5

* * *

The entries below are paired with their reported Ki^μ/Ki^δ.
Biological target: δ opioid receptor (Rattus norvegicus, UniProt P33533)
Construct: Male Sprague-Dawley rats (300-350 g) from the Canadian Breeding Laboratories were decapitated and after removal of the cerebellum the brains were homogenized; from tissue; host or cells: rat brain (without cerebellum) membranes, male Sprague-Dawley
Sequence (P33533 whole entry): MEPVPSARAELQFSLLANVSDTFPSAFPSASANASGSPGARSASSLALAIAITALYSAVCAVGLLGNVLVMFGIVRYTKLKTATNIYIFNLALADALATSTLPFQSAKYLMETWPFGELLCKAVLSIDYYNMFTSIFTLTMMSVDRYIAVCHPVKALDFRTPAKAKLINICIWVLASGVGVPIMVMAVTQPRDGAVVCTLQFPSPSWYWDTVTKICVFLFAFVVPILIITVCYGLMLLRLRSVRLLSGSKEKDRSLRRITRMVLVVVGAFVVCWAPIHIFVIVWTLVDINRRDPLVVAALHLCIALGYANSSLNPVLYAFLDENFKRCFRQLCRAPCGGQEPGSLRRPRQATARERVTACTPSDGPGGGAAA
Assay: δ opioid receptor binding assay, displacement of [3H]DSLET from rat brain membranes
Settings: δ versus μ receptor selectivity
Where a SMILES comes first, the peptide text is derived from it. [ ]: non-standard residue; d: D form. The star is where a group is joined. Tic = O=C(O)[C@@H]1Cc2ccccc2CN1; NHPhenethyl = c1ccc(CCN*)cc1
// no unit string in output, number only

Sample answers from the record:
- COMPOUND: "NC(Cc1ccc(O)cc1)C(=O)N1Cc2ccccc2CC1C(=O)NC1CC1c1ccccc1 (single isomer, unassigned) [Example 22]"
  VALUE KIND: "Ki^μ/Ki^δ"
  RECORDED VALUE: 8.46
- COMPOUND: "CCOC(=O)C(CNC(=O)[C@@H]1Cc2ccccc2CN1C(=O)[C@@H](N)Cc1ccc(O)cc1)c1ccccc1 (single isomer, unassigned) [Example 16]"
  VALUE KIND: "Ki^μ/Ki^δ"
  RECORDED VALUE: 50.5
- COMPOUND: "N[C@@H](Cc1ccc(O)cc1)C(=O)N1Cc2ccccc2C[C@H]1C(=O)NCCc1ccccc1Br"
  VALUE KIND: "Ki^μ/Ki^δ"
  RECORDED VALUE: 18.8
- COMPOUND: "NC(=O)C(CNC(=O)[C@@H]1Cc2ccccc2CN1C(=O)[C@@H](N)Cc1ccc(O)cc1)c1ccccc1 (single isomer, unassigned) [Example 18]"
  VALUE KIND: "Ki^μ/Ki^δ"
  RECORDED VALUE: 8.38
- COMPOUND: "NC(Cc1ccc(O)cc1)C(=O)N1Cc2ccccc2CC1C(=O)NC1CC1c1ccccc1 (single isomer, unassigned) [Example 21]"
  VALUE KIND: "Ki^μ/Ki^δ"
  RECORDED VALUE: 9.20
- COMPOUND: "CCOC(=O)C(CNC(=O)[C@@H]1Cc2ccccc2CN1C(=O)[C@@H](N)Cc1ccc(O)cc1C)c1ccccc1 (single isomer, unassigned) [Example 30]"
  VALUE KIND: "Ki^μ/Ki^δ"
  RECORDED VALUE: 101
- COMPOUND: "N[C@@H](Cc1ccc(O)cc1)C(=O)N1Cc2ccccc2C[C@H]1C(=O)NCC(CO)c1ccccc1 (single isomer, unassigned) [Example 28]"
  VALUE KIND: "Ki^μ/Ki^δ"
  RECORDED VALUE: 31.0
- COMPOUND: "NC(=O)C(CNC(=O)[C@@H]1Cc2ccccc2CN1C(=O)[C@@H](N)Cc1ccc(O)cc1)c1ccccc1 (single isomer, unassigned) [Example 17]"
  VALUE KIND: "Ki^μ/Ki^δ"
  RECORDED VALUE: 3.43
- COMPOUND: "Cc1ccccc1CCNC(=O)[C@@H]1Cc2ccccc2CN1C(=O)[C@@H](N)Cc1ccc(O)cc1"
  VALUE KIND: "Ki^μ/Ki^δ"
  RECORDED VALUE: 22.1
- COMPOUND: "N[C@@H](Cc1ccc(O)cc1)C(=O)N1Cc2ccccc2C[C@H]1C(=O)NCCc1ccccc1-c1ccccc1"
  VALUE KIND: "Ki^μ/Ki^δ"
  RECORDED VALUE: 15.4

Ki^μ/Ki^δ for N[C@@H](Cc1ccc(O)cc1)C(=O)N1Cc2ccccc2C[C@H]1C(=O)NCCc1ccccc1 [H-Tyr-Tic-NH--CH2 --CH2 --Ph, reference compound] (H-Tyr-[Tic]-NHPhenethyl) ?
13.2
